Data provenance is patent US11963972B2.

# test_details: Cytotoxicity MTT assay in PBM cells
# Type: cell-based
# condition: human, PHA-stimulated human PBM cells
# reported IC50; entries follow
Entry rule: numbers only, all in µM.

Prompt: Find the measured IC50 of CC1(O)C(O)[C@@H](CO)O[C@H]1n1cc(F)c2c(N)ncnc21 (stereo partly drawn) [drawing 91] and report it.
Response: 83.7

Prompt: Find the measured IC50 of CC1(O)C(O)[C@@H](CO)O[C@H]1n1ccc(N)nc1=O (stereo partly drawn) and report it.
Response: 65.4

Prompt: Find the measured IC50 of O=c1nc(NO)ccn1[C@@H]1O[C@H](CO)C(O)C1O (stereo partly drawn) [drawing 107] and report it.
Response: 30.6
